B1: PPP2R2B (parent)
chain: PSNRSFFSEIISSISDVKFSHSGR

Variants of: B1
Test Name: protein stability index of a GFP-peptide fusion (GPS, HEK-293T) (PSI 1-6); higher = more stable;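 note: lentivirally expressed fusions sorted by FACS into six bins by GFP to DsRed ratio, PSI derived from sequencing read proportions per bin multiplied by bin number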
Measurement Parameters: c terminus: a fixed tail appended
# protein stability index annotations
Readout Kind: protein stability index

variant_designation=F7G readout_kind="protein stability index" numeric_readout=3.42
variant_designation=V17Y readout_kind="protein stability index" numeric_readout=2.29
variant_designation=K18V readout_kind="protein stability index" numeric_readout=2.09
variant_designation=D16G readout_kind="protein stability index" numeric_readout=2.29
variant_designation=S5A readout_kind="protein stability index" numeric_readout=2.31
variant_designation=S20W readout_kind="protein stability index" numeric_readout=2.38
variant_designation=S2N readout_kind="protein stability index" numeric_readout=2.29
variant_designation=R24M readout_kind="protein stability index" numeric_readout=1.97
variant_designation=S20C readout_kind="protein stability index" numeric_readout=2.12
variant_designation=S5V readout_kind="protein stability index" numeric_readout=1.96
variant_designation=H21N readout_kind="protein stability index" numeric_readout=2.48
